This section presents compounds with their documented Growth Percent (10 μM) values.
Tested on: SNB-75
experiment notes: NCI one-dose screening, CNS cancer SNB-75
Type: cell-based, human
condition info: SNB-75, 10 μM

- compound: "CN(C)CCNc1cc2c(c3nsnc13)C(=O)c1ccccc1C2=O [C8]"
  study system: "SNB-75"
  Growth Percent (10 μM) (%): "−73.34"
- compound: "CC(C)Sc1cc2c(c3nsnc13)C(=O)c1ccccc1C2=O [C18]"
  study system: "SNB-75"
  Growth Percent (10 μM) (%): 9.12
- compound: "O=C1c2ccccc2C(=O)c2c1cc(N1CCCC1)c1nsnc21 [C7]"
  study system: "SNB-75"
  Growth Percent (10 μM) (%): 94.52
- compound: "Cc1ccc(Nc2cc3c(c4nsnc24)C(=O)c2ccccc2C3=O)cc1 [C64]"
  study system: "SNB-75"
  Growth Percent (10 μM) (%): 80.91
